Source of measurements: ChEMBL document CHEMBL1158565

Catalogue of compounds with associated pIC50
target of assay: Voltage-dependent L-type calcium channel subunit alpha-1D (Rattus norvegicus, UniProt P27732)
Sequence (P27732 whole entry): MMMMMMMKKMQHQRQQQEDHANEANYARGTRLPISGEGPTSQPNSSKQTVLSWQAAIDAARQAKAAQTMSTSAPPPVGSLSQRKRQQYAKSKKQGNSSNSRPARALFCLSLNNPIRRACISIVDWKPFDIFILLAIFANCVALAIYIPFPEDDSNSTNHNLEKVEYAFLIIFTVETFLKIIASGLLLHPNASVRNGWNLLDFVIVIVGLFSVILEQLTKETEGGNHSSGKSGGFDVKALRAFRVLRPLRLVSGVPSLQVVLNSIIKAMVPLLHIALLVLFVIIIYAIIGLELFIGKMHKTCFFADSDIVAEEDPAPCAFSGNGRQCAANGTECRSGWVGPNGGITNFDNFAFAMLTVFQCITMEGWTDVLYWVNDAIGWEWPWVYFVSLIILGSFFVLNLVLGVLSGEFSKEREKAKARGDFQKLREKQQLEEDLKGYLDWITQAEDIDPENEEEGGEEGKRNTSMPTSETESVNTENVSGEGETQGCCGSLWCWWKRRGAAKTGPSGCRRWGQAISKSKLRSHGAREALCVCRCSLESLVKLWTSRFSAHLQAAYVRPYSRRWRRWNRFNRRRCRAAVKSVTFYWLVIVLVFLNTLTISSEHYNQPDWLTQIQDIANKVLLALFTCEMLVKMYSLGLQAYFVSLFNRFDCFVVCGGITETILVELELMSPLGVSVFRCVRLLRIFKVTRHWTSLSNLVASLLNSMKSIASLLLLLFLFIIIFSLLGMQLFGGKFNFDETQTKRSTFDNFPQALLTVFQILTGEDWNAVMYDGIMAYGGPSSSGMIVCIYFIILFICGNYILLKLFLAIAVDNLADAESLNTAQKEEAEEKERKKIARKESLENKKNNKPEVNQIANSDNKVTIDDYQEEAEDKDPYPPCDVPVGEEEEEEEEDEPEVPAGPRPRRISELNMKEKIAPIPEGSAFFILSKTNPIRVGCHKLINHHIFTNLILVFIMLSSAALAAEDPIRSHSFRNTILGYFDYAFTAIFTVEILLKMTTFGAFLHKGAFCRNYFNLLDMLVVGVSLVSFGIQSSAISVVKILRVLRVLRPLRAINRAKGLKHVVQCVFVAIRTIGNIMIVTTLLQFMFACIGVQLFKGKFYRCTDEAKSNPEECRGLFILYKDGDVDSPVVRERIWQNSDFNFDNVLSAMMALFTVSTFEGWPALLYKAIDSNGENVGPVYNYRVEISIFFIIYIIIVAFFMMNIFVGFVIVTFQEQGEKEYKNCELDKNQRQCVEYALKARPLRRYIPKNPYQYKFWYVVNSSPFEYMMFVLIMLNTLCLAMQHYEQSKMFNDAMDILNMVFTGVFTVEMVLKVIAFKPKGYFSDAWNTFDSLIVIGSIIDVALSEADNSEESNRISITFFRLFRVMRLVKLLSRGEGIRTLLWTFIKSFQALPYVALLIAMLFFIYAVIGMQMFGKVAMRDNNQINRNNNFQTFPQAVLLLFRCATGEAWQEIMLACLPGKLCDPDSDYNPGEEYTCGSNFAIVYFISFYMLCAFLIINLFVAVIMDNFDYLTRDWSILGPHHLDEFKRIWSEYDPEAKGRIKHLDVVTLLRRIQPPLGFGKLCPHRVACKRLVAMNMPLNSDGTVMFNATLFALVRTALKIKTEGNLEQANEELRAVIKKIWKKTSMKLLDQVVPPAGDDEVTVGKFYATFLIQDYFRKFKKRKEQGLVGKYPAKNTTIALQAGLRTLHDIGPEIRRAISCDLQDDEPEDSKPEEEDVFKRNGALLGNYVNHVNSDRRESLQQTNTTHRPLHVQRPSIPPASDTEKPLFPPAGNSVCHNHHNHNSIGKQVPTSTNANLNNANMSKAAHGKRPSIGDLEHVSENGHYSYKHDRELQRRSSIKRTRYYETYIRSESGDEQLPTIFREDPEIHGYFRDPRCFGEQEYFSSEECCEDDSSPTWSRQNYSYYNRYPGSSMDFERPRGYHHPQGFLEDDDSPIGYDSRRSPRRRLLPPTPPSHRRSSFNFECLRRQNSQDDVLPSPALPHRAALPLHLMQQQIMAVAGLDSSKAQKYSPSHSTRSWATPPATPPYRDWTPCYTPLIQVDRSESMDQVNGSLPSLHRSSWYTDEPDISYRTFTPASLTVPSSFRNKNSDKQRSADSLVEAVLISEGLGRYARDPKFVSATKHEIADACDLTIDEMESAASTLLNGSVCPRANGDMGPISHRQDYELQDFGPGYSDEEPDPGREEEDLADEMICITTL
protocol: Antagonist activity at rat Cav1.3 expressed in HEK293 cells assessed as inhibition of voltage pulse-induced calcium current by FLIPR calcium 4 assay
pIC50: −log10 of the molar value.
endpoint label: pIC50

compound	value measured
COC(=O)C1=C(C)NC(C)=C(C(=O)OCCCCc2ccccc2)C1c1cccc([N+](=O)[O-])c1 (centres undefined)	7.42
COC(=O)C1=C(C)NC(C)=C(C(=O)O)C1c1cccc([N+](=O)[O-])c1 (centres undefined)	6.03
COC(=O)C1=C(C)NC(C)=C(C(=O)OCc2ccc(F)c(F)c2)C1c1cccc([N+](=O)[O-])c1 (centres undefined)	7.70
COC(=O)C1=C(C)NC(C)=C(C(=O)OCc2cccs2)C1c1cccc([N+](=O)[O-])c1 (centres undefined)	7.64
COC(=O)C1=C(C)NC(C)=C(C(=O)OC2C=CCCC2)C1c1cccc([N+](=O)[O-])c1 (centres undefined)	8.00
COC(=O)C1=C(C)NC(C)=C(C(=O)OCCCl)C1c1cccc([N+](=O)[O-])c1 (centres undefined)	7.66
COC(=O)C1=C(C)NC(C)=C(C(=O)OC/C=C/c2ccccc2)C1c1cccc([N+](=O)[O-])c1 (centres undefined) [PRANIDIPINE]	7.43
COC(=O)C1=C(C)NC(C)=C(C(=O)OCc2ccc3c(c2)OCO3)C1c1cccc([N+](=O)[O-])c1 (centres undefined)	7.66
COC(=O)C1=C(C)NC(C)=C(C(=O)OCc2ccc(OC)cc2)C1c1cccc([N+](=O)[O-])c1 (centres undefined)	7.10
CCOC(=O)C1=C(C)NC(CO)=C(C(=O)OCC)C1c1cccc([N+](=O)[O-])c1 (centres undefined)	7.35
CCOC(=O)C1=C(C)NC(/C=C/C#N)=C(C(=O)OCC)C1c1cccc([N+](=O)[O-])c1 (centres undefined)	7.35
COC(=O)C1=C(C)NC(C)=C(C(=O)OCC(F)(F)F)C1c1cccc([N+](=O)[O-])c1 (centres undefined)	7.68
C=CCOC(=O)C1=C(C)NC(C)=C(C(=O)OC)C1c1ccccc1[N+](=O)[O-] (centres undefined)	8.00
COC(=O)C1=C(C)NC(C)=C(C(=O)OCCOc2ccccc2Cl)C1c1cccc([N+](=O)[O-])c1 (centres undefined)	7.34

====

target of assay: Voltage-dependent L-type calcium channel subunit alpha-1D (Rattus norvegicus)
protocol: Antagonist activity at rat Cav1.3 expressed in HEK293 cells assessed as inhibition of voltage pulse-induced calcium current at 100 nM by whole-cell patch-clamp recording
Respond with Met for inhibition values of 40% and above, Not met for values below.

compound	class
CCOC(=O)C1=C(CC)NC(C)=C(C(=O)OC)C1c1cccc([N+](=O)[O-])c1 (centres undefined)	Met
CCOC(=O)C1=C(C)NC(C)=C(C(=O)OC)C1c1cccc([N+](=O)[O-])c1 (centres undefined)	Not met
COC(=O)C1=C(C)NC(C)=C(C(=O)OC)C1c1ccccc1[N+](=O)[O-]	Met
CCCC1=C(C(=O)OCC)C(c2cccc([N+](=O)[O-])c2)C(C(=O)OCC)=C(CCC)N1	Not met
CCOC(=O)C1=C(CC)NC(CC)=C(C(=O)OCC)C1c1cccc([N+](=O)[O-])c1	Not met
CCOC(=O)C1=C(C)NC(C)=C(C(=O)OCC)C1c1cccc(Br)c1	Met
CC1=C(C(=O)OC(C)(C)C)C(c2cccc([N+](=O)[O-])c2)C(C(=O)OC(C)(C)C)=C(C)N1	Not met
CCOC(=O)C1=C(C)NC(C)=C(C(=O)OCC)C1c1cccc(Cl)c1	Met

====

target of assay: Voltage-dependent L-type calcium channel subunit alpha-1C (Oryctolagus cuniculus, UniProt P15381)
Sequence (P15381 whole entry): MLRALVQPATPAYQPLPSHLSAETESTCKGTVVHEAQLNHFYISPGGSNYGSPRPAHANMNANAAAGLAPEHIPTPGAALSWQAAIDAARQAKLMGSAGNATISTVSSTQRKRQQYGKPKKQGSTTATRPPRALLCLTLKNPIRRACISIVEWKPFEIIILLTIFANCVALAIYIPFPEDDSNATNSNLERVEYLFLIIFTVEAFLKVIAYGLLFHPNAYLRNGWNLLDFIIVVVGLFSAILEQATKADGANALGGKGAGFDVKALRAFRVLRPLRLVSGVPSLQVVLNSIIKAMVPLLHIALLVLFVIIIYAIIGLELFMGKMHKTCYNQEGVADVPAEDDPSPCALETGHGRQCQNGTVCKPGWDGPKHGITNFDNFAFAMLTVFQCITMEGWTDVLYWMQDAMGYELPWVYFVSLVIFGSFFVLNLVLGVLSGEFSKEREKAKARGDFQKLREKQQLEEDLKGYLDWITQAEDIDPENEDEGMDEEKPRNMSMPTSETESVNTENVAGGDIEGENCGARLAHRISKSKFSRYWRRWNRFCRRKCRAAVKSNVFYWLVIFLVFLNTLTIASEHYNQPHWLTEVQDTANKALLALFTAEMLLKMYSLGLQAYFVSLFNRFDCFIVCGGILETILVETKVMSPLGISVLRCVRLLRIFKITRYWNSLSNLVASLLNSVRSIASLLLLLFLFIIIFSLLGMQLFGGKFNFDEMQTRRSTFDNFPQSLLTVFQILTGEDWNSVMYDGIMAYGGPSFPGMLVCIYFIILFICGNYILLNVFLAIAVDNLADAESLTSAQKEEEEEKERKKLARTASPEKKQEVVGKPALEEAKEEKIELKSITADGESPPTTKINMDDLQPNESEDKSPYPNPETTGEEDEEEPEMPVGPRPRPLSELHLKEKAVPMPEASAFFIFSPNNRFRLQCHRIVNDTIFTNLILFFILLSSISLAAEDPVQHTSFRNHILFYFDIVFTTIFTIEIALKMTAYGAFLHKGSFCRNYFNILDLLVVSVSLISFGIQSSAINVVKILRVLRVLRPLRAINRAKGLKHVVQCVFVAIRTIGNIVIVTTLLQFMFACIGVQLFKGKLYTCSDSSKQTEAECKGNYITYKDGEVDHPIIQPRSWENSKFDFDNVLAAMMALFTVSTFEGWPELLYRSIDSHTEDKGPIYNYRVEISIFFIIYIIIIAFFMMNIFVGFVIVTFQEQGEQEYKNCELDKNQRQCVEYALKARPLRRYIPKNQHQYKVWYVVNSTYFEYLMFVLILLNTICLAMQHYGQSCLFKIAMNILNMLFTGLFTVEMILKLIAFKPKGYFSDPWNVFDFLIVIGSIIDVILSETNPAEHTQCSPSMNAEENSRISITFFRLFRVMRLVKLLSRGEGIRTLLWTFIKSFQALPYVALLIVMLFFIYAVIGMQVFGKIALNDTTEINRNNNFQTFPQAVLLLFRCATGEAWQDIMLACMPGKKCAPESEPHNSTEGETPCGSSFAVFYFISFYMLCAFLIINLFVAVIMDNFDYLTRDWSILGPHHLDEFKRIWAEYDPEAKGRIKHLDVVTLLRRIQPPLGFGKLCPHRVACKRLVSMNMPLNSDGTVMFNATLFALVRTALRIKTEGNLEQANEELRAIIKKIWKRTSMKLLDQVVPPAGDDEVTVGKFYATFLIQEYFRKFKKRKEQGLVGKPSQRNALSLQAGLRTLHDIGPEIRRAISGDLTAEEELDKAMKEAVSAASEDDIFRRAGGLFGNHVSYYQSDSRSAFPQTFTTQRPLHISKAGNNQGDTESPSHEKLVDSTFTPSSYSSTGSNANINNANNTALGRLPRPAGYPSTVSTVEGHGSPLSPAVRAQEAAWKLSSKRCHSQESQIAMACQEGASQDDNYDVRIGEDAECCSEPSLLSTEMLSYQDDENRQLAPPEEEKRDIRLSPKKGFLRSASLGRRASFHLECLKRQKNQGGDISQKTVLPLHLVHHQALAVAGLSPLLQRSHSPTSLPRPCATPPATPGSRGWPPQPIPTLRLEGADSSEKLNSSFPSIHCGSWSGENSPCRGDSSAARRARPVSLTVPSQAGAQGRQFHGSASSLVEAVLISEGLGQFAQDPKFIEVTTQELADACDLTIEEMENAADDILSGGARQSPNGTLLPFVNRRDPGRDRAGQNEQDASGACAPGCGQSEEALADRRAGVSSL
protocol: Antagonist activity at rabbit Cav1.2 expressed in tsA201 cells assessed as inhibition of voltage pulse-induced calcium current at 100 nM by whole-cell patch-clamp recording
endpoint label: inhibition at 0.1 µM (%)

compound	value measured
CCOC(=O)C1=C(CC)NC(C)=C(C(=O)OC)C1c1cccc([N+](=O)[O-])c1 (centres undefined)	76
CCOC(=O)C1=C(C)NC(C)=C(C(=O)OCC)C1c1cccc(Cl)c1	58
CCCC1=C(C(=O)OCC)C(c2cccc([N+](=O)[O-])c2)C(C(=O)OCC)=C(CCC)N1	25
CCOC(=O)C1=C(C)NC(C)=C(C(=O)OC)C1c1cccc([N+](=O)[O-])c1 (centres undefined)	62

====

target of assay: Voltage-dependent L-type calcium channel subunit alpha-1C (Oryctolagus cuniculus)
protocol: Antagonist activity at rabbit Cav1.2 expressed in tsA201 cells assessed as inhibition of voltage pulse-induced calcium current at 200 nM by whole-cell patch-clamp recording

compound	output unit	inhibition at 0.2 µM
COC(=O)C1=C(C)NC(C)=C(C(=O)OCC(C)C)C1c1cccc([N+](=O)[O-])c1 (configuration not stated)	%	94
CCOC(=O)C1=C(C)N=C(C)/C(=C(/O)OCC)C1c1ccncc1 (configuration not stated)	%	27
CCOC(=O)C1=C(C)NC(C)=C(C(=O)OCC)C1c1cc([N+](=O)[O-])ccc1Cl	%	97
CCOC(=O)C1=C(C)NC(C)=C(C(=O)OCC)C1c1cc(Br)cc(Br)c1	%	74
CCOC(=O)C1=C(C)N=C(C)/C(=C(/O)OCC)C1c1cccnc1 (configuration not stated)	%	25
CCOC(=O)C1=C(C)NC(C)=C(C(=O)OCC)C1c1ccc(Cl)c([N+](=O)[O-])c1	%	86
CCOC(=O)C1=C(C)NC(C)=C(C(=O)OCC)C1c1csc2ccccc12	%	80
CCOC(=O)C1=C(C)NC(C)=C(C(=O)OCC)C1C1CCCCC1	%	26
CC1=C(C(=O)OCC(C)C)C(c2cccc([N+](=O)[O-])c2)C(C(=O)OCC(C)C)=C(C)N1	%	52
CCOC(=O)C1=C(C)N=C(C)/C(=C(/O)OCC)C1c1cccs1 (configuration not stated)	%	65
CCOC(=O)C1=C(C(F)(F)F)NC(C(F)(F)F)=C(C(=O)OCC)C1c1cccc(C(F)(F)F)c1	%	61
CCOC(=O)C1=C(C)NC(C)=C(C(=O)OCC)C1c1ccccc1I	%	96

====

target of assay: Voltage-dependent L-type calcium channel subunit alpha-1D (Rattus norvegicus)
protocol: Antagonist activity at rat Cav1.3 expressed in HEK293 cells assessed as inhibition of voltage pulse-induced calcium current by FLIPR calcium 4 assay
Bucketed by reported IC50, buckets being class 0 (below 100 nM), class 1 (100 nM to below 600 nM), class 2 (600 nM or more)

compound	target of assay	class
COC(=O)C1=C(C)NC(C)=C(C(=O)OCC(C)[N+](=O)[O-])C1c1cccc([N+](=O)[O-])c1 (stereo unspecified)	Voltage-dependent L-type calcium channel subunit alpha-1D (Rattus norvegicus)	class 1
COC(=O)C1=C(C)NC(C)=C(C(=O)OCc2ccccc2)C1c1cccc([N+](=O)[O-])c1 (stereo unspecified)	Voltage-dependent L-type calcium channel subunit alpha-1D (Rattus norvegicus)	class 0
COC(=O)C1=C(C)NC(C)=C(C(=O)OCc2ccc(OC)c(OC)c2)C1c1cccc([N+](=O)[O-])c1 (stereo unspecified)	Voltage-dependent L-type calcium channel subunit alpha-1D (Rattus norvegicus)	class 1
C=CCOC(=O)C1=C(C)NC(C)=C(C(=O)OCC)C1c1cccc([N+](=O)[O-])c1 (stereo unspecified)	Voltage-dependent L-type calcium channel subunit alpha-1D (Rattus norvegicus)	class 0
CCOC(=O)C1=C(C)OC(C)=C(C(=O)OCC)C1c1cccc([N+](=O)[O-])c1	Voltage-dependent L-type calcium channel subunit alpha-1D (Rattus norvegicus)	class 2
CCOC(=O)C1=C(C)NC(C)=C(C(=O)OCCC#N)[C@H]1c1cccc([N+](=O)[O-])c1	Voltage-dependent L-type calcium channel subunit alpha-1D (Rattus norvegicus)	class 1
CCOC(=O)C1=C(C)NC(C)=C(C(=O)OCCOC)C1c1cccc([N+](=O)[O-])c1 (stereo unspecified)	Voltage-dependent L-type calcium channel subunit alpha-1D (Rattus norvegicus)	class 0
COC(=O)C1=C(C)NC(C)=C(C(=O)OCCC#N)[C@@H]1c1cccc([N+](=O)[O-])c1	Voltage-dependent L-type calcium channel subunit alpha-1D (Rattus norvegicus)	class 1
CCOC(=O)C1=C(C)NC(COC)=C(C(=O)OC)C1c1ccccc1[N+](=O)[O-] (stereo unspecified)	Voltage-dependent L-type calcium channel subunit alpha-1D (Rattus norvegicus)	class 2
CCOC(=O)C1=C(C)NC(C)=C(C(=O)OCC)C1(C)c1ccccc1	Voltage-dependent L-type calcium channel subunit alpha-1D (Rattus norvegicus)	class 2

====

target of assay: Voltage-dependent L-type calcium channel subunit alpha-1D (Rattus norvegicus)
protocol: Antagonist activity at rat Cav1.3 expressed in HEK293 cells assessed as inhibition of voltage pulse-induced calcium current by FLIPR calcium 4 assay
Attribute: IC50
endpoint label: IC50 (nM)

compound	endpoint label	value measured
CCCCC1=C(C(=O)OCC)C(c2cccc([N+](=O)[O-])c2)C(C(=O)OCC)=C(C)N1 (stereo not given)	IC50	20
COC(=O)C1=C(C)NC(C)=C(C(=O)OCCCOc2ccccc2)C1c1cccc([N+](=O)[O-])c1 (stereo not given)	IC50	11
COC(=O)C1=C(C)NC(C)=C(C(=O)OCc2cc([N+](=O)[O-])cc([N+](=O)[O-])c2)C1c1cccc([N+](=O)[O-])c1 (stereo not given)	IC50	40
COC(=O)C1=C(C)NC(C)=C(C(=O)OCCC(C)c2ccccc2)C1c1cccc([N+](=O)[O-])c1 (stereo not given)	IC50	11
COC(=O)C1=C(C)NC(C)=C(C(=O)OCCNC(=O)C(F)(F)F)C1c1cccc([N+](=O)[O-])c1 (stereo not given)	IC50	550
CC1=C(C#N)C(c2cccc(F)c2F)C(C#N)=C(C)N1	IC50	1150
COCC1=C(C(=O)OC)C(c2cccc([N+](=O)[O-])c2)C(C(=O)OC)=C(C)N1 (stereo not given)	IC50	350
COC(=O)C1=C(C)NC(C)=C(C(=O)OCCC#N)[C@H]1c1cccc([N+](=O)[O-])c1	IC50	589
C#CCCOC(=O)C1=C(C)NC(C)=C(C(=O)OC)C1c1cccc([N+](=O)[O-])c1 (stereo not given)	IC50	35
COC(=O)C1=C(C)NC(C)=C(C(=O)OCCOCc2ccccc2)C1c1cccc([N+](=O)[O-])c1 (stereo not given)	IC50	12
CCOC(=O)C1=C(C)NC(/C=C/c2ccc([N+](=O)[O-])cc2)=C(C(=O)OCC)C1c1cccc([N+](=O)[O-])c1 (stereo not given)	IC50	2060
COC(=O)C1=C(C)NC(C)=C(C(=O)OCCC(c2ccccc2)c2ccccc2)C1c1cccc([N+](=O)[O-])c1 (stereo not given)	IC50	270
CCOC(=O)C1=C(C)NC(C)=C(C(=O)OCC)C1c1cccc(F)c1F	IC50	10
COC(=O)C1=C(C)NC(C)=C(C(=O)OCC2CC2)C1c1cccc([N+](=O)[O-])c1 (stereo not given)	IC50	21
CCOC(=O)C1=C(C)NC(C)=C(C(=O)OCC)C1c1ccccc1SC	IC50	15
